conditions: in NMP, 298.15 K
Observable: solubility (mole fraction)

Request: Looking for the measured solubility (mole fraction) of "NC(=O)N1c2ccccc2CC(=O)c2ccccc21" , can you help?
Response: 0.0369

* * *

conditions: in DMSO, 298.15 K
Observable: solubility (mole fraction)
Quick one: just the number, no unit, thanks!

Request: Looking for the measured solubility (mole fraction) of "NC(=O)N1c2ccccc2CC(=O)c2ccccc21" , can you help?
Response: 0.0367

* * *

conditions: in NMP, 308.15 K
Observable: solubility (mole fraction)
Quick one: just the number, no unit, thanks!

Request: Looking for the measured solubility (mole fraction) of "NC(=O)N1c2ccccc2CC(=O)c2ccccc21" , can you help?
Response: 0.0335

* * *

conditions: in NMP, 293.15 K
Observable: solubility (mole fraction)
Quick one: just the number, no unit, thanks!

Request: Looking for the measured solubility (mole fraction) of "NC(=O)N1c2ccccc2CC(=O)c2ccccc21" , can you help?
Response: 0.0358

* * *

conditions: in DMAc, 298.15 K
Observable: solubility (mole fraction)
Quick one: just the number, no unit, thanks!

Request: Looking for the measured solubility (mole fraction) of "NC(=O)N1c2ccccc2CC(=O)c2ccccc21" , can you help?
Response: 0.0205

* * *

conditions: in DMF, 288.15 K
Observable: solubility (mole fraction)
Quick one: just the number, no unit, thanks!

Request: Looking for the measured solubility (mole fraction) of "NC(=O)N1c2ccccc2CC(=O)c2ccccc21" , can you help?
Response: 0.0202

* * *

conditions: in DMSO, 303.15 K
Observable: solubility (mole fraction)

Request: Looking for the measured solubility (mole fraction) of "NC(=O)N1c2ccccc2CC(=O)c2ccccc21" , can you help?
Response: 0.0259

* * *

conditions: in DMF, 298.15 K
Observable: solubility (mole fraction)

Request: Looking for the measured solubility (mole fraction) of "NC(=O)N1c2ccccc2CC(=O)c2ccccc21" , can you help?
Response: 0.0174

* * *

conditions: in transcutol, 298.15 K
Observable: solubility (mole fraction)
Quick one: just the number, no unit, thanks!

Request: Looking for the measured solubility (mole fraction) of "NC(=O)N1c2ccccc2CC(=O)c2ccccc21" , can you help?
Response: 0.00456

* * *

conditions: in DMSO, 308.15 K
Observable: solubility (mole fraction)
Quick one: just the number, no unit, thanks!

Request: Looking for the measured solubility (mole fraction) of "NC(=O)N1c2ccccc2CC(=O)c2ccccc21" , can you help?
Response: 0.0285

* * *

settings: in DMF, 293.15 K
Observable: solubility (mole fraction)
Quick one: just the number, no unit, thanks!

Request: Looking for the measured solubility (mole fraction) of "NC(=O)N1c2ccccc2CC(=O)c2ccccc21" , can you help?
Response: 0.0212

* * *

details: in DMAc, 303.15 K
Observable: solubility (mole fraction)

Request: Looking for the measured solubility (mole fraction) of "NC(=O)N1c2ccccc2CC(=O)c2ccccc21" , can you help?
Response: 0.0222

* * *

settings: in water, 298.15 K
Observable: solubility (mole fraction)
Quick one: just the number, no unit, thanks!

Request: Looking for the measured solubility (mole fraction) of "NC(=O)N1c2ccccc2CC(=O)c2ccccc21" , can you help?
Response: 6.3e-06

* * *

conditions: in DMAc, 288.15 K
Observable: solubility (mole fraction)
Quick one: just the number, no unit, thanks!

Request: Looking for the measured solubility (mole fraction) of "NC(=O)N1c2ccccc2CC(=O)c2ccccc21" , can you help?
Response: 0.0256

Measured values drawn from BigSolDB 2.1 for this set.
